- Assay Protocol: Determination of LD50
- Format: in vivo
- Protocol Conditions: mouse, in vivo; Balb/c female mice 3 months of age; ip (or iv) injection
Reported Metric: LD50 (µmol/kg)

1. CCN(CC)CCCNc1n[n+]([O-])c2ccccc2[n+]1[O-] [Compound 18a] | 250
